B1: ZNF263 (parent)
chain: FGGNPRFLSLHRAHLGEEAHKCLE

Variants of: B1
Test: protein stability index of a GFP-peptide fusion (GPS, HEK-293T) (PSI 1-6); higher = more stable;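 note: lentivirally expressed fusions sorted by FACS into six bins by GFP to DsRed ratio, PSI derived from sequencing read proportions per bin multiplied by bin number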
Settings: c terminus: a fixed tail appended
Entries and their measured protein stability index follow.
When you answer, write just the number.

Some variants with known protein stability index results, for comparison:
>  <Mutant designation>
E18W

>  <Measurement type>
protein stability index

>  <Quantitative readout>
2.03

$$$$
>  <Mutant designation>
A19D

>  <Measurement type>
protein stability index

>  <Quantitative readout>
1.99

$$$$
>  <Mutant designation>
A19T

>  <Measurement type>
protein stability index

>  <Quantitative readout>
1.95

$$$$
>  <Mutant designation>
F1Q

>  <Measurement type>
protein stability index

>  <Quantitative readout>
3.38

$$$$
>  <Mutant designation>
L10E

>  <Measurement type>
protein stability index

>  <Quantitative readout>
2.64

$$$$

Challenge: May I ask what protein stability index has been recorded for F1P ?
Response given: 3.7

Challenge: What do you have for E18S ?
Response given: 2.34

Challenge: What do you have for A19E ?
Response given: 2.14
